Taken from ChEMBL document CHEMBL1151575.

- assay.name: Area under the curve for compound was evaluated in dog at a dose of 20 mg/kg.
- Type: ADME, organism-based, Canis lupus familiaris
- Parameters: dose 20 mg/kg
- condition.info: in vivo
readout.type: AUC (ng·h/mL)

a: C[C@H](NC(=O)C[C@@H](CC(=O)O)C(=O)O)[C@@H](Cc1ccc(Cl)c(Cl)c1)c1ccc(-c2ccccc2)c(F)c1
b: C[C@@H](CC(=O)O)CC(=O)N[C@@H](C)[C@H](/C=C/c1ccc2ccccc2c1)Cc1ccc(Cl)c(Cl)c1
Determine, for a and b , which has the greater value of AUC. Respond using the label that marks the chosen record.
b
